system.tested: Aldehyde dehydrogenase, mitochondrial (Homo sapiens) (UniProt P05091)
experimental.protocol: qHTS for Inhibitors of the Aldehyde Dehydrogenase Family (ALDH2) Primary screen (AID 2061308); also: nearly all actives have a fitted effect of over 55% in size
condition.label: ALDH2 enzyme inhibition qHTS, 1536-well; series mostly up to 56 µM
Records with an inconclusive call do not appear. Calls of active or inactive are those of the source. Calls follow the shape of the dose curve; as a rule, active = well fitted inhibition curve with a large enough effect; inconclusive = small, poorly fitted or top-dose-only effect; inactive = flat fitted curve, though single readings scatter.

smiles.code	outcome
Cc1ccnc(NC(=S)N2CCN(c3cccc(N(C)C)c3)CC2)c1	inactive
Cc1cc(NS(=O)(=O)c2ccc(NC(=O)Cc3ccc(C)c(C)c3)cc2)no1	inactive
CCOC(=O)c1ccc(NC(=O)CN2CCCCC2)cc1	inactive

---

experimental.protocol: BET inhibitor-based combinations targeting novel dependencies in MECOM-rearranged (r) AML: HNT-34 cell line (AID 2202234); also: nearly all actives have a fitted effect of over 35% in size; also: potency is read from the fitted curve at half-maximal effect
condition.label: HNT-34 AML viability, CellTiter-Glo luminescence, 48 h; series mostly up to 46 µM
Inconclusive results are not listed. Calls of active or inactive are those of the source. Calls follow the shape of the dose curve; as a rule, active = well fitted inhibition curve with a large enough effect; inconclusive = small, poorly fitted or top-dose-only effect; inactive = no such curve, though single readings can be large or run the other way.
parameter: Potency

molecule	Potency
N=C(N)c1ccc2nc(-c3cc(CC(=O)N[C@@H](CC(=O)O)C(=O)O)cc(-c4cc(S(N)(=O)=O)ccc4O)c3O)[nH]c2c1	inactive
Nc1nc(F)nc2c1ncn2C1OC(COP(=O)(O)O)C(O)C1O (stereo not given)	16.6 µM (active)
CCC(C(=O)O)C1CCC(C)C(C(C)C(O)C(C)C(=O)C(CC)C2OC3(C=CC(O)[C@@]4(CC[C@](C)(C5CC[C@@](O)(CC)C(C)O5)O4)O3)C(C)CC2C)O1 (stereo not given in full)	0.525 µM (active)
CCCC1(CCC)CCC2(CCN(CCCN(CC)CC)C2)CC1	4.68 µM (active)
COC(C)(C)CCn1nc(Nc2c(C)cccc2C)c2cnc(Nc3ccc(OCCN4CCCC4)c(F)c3)nc21	0.0661 µM (active)
Cc1ccc(NC(=O)Nc2nnc(Sc3ncnc4cc(OCCCN5CCOCC5)ccc34)s2)cc1	14.8 µM (active)
CS(=O)(=O)c1ccc([C@@H](CC2CCCC2)C(=O)Nc2nccs2)cc1	inactive
COc1ccc2c(c1)c(C1=C(c3c[nH]c4ccccc34)C(=O)NC1=O)cn2CCCN(C)C	16.6 µM (active)
C[C@@H]1N=C(N)NC(N(C)C)=N1	inactive

Using known records, supply Potency for "CCNC(=O)Nc1ccc(Oc2ncnc(N)c2/C=N/OC)cc1Cl"
20.9 µM (active)
